- Test system: T1, MPDZ_12, O75970
- T1 sequence (O75970 1857-1958, limits assumed, looked up): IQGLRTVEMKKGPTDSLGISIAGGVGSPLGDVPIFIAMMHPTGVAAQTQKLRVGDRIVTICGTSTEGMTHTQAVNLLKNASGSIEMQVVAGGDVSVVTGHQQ
- Method: holdup assay
- Set-up: key: below the threshold = too weak to quantify, mostly under pKd 3.1 to 4
- Assay conditions: plain residues with an end cap or a label only (N-terminal biotin on a linker: ado-ado)
Assay endpoint: pKd

Completed entries (count: 8):
AHGSTRDQSI [KCNB1, Q14721]	3.62
VISSDDLTEL [CAPN6, Q9Y6Q1]	below the threshold
KPDKQEEFYA [SDC3, O75056]	3.73
IKLETKKTKL [SLC15A2, Q16348]	below the threshold
DAAHHDESNC [FMNL3, Q8IVF7]	below the threshold
THREVKFTSL [CD46, P15529]	below the threshold
FHSIKQSTAV [CRHR1, P34998]	below the threshold
VKQYADVEGF [HNRNPK, P61978;P61978-2]	below the threshold

Prompt: Retrieve pKd measured for TFSRRPKTRV [CD226, Q15762] and print it.
Completion: below the threshold

Prompt: Retrieve pKd measured for STYCDYTIEI [FAM71C, Q8NEG0] and print it.
Completion: below the threshold

Prompt: Retrieve pKd measured for IQISELETNV [SLC1A7, O00341] and print it.
Completion: below the threshold

Prompt: Retrieve pKd measured for AKADAQESRL [PLCB2, Q00722] and print it.
Completion: below the threshold

Prompt: Retrieve pKd measured for SQDPKKPSRV [CBY2, Q8NA61] and print it.
Completion: below the threshold

Prompt: Retrieve pKd measured for KEKASTETEC [TRPM1, Q7Z4N2] and print it.
Completion: below the threshold

Prompt: Retrieve pKd measured for HLSTRQGTCV [ATRNL1, Q5VV63] and print it.
Completion: 3.67

Prompt: Retrieve pKd measured for DLLGGGSDSI [TNRC6B, Q9UPQ9] and print it.
Completion: 3.53
